Target: Amine oxidase [flavin-containing] B (Rattus norvegicus, UniProt P19643)
Sequence (P19643 whole entry): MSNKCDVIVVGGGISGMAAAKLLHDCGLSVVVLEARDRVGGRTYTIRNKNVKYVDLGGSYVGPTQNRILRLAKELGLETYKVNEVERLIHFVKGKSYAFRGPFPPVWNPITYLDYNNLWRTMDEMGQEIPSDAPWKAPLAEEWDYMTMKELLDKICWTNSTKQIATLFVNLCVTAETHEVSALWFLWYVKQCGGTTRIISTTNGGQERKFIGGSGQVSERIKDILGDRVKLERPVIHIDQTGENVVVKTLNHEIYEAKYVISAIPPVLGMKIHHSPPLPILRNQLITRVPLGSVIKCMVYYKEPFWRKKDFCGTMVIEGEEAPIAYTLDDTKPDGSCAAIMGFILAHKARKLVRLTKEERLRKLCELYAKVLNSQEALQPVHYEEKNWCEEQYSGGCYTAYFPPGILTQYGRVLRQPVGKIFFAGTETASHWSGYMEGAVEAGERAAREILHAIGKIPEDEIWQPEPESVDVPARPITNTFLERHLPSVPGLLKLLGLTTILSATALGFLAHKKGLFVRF
Experiment: Ex-Vivo percentage inhibition of MAO-B after 24 hr single 5 mg/kg dose by oral gavage
Type: organism-based
Parameters: dose 5 mg/kg, route oral
Quick reference: inhibition at 5 mg/kg of the listed items.
State the answer as a number, implicitly in %.

[Q] API: value(readout= inhibition at 5 mg/kg, system= Amine oxidase [flavin-containing] B (Rattus norvegicus, UniProt P19643), query= `Cc1cccc(COc2ccc(-c3nn(CCC#N)c(=O)o3)cc2)c1` )
[A] -3

[Q] Record: `N#CCCN1N=C(c2ccc(OCc3ccccc3)cc2)OCC1=S`
[A] -4

[Q] Record: `N#CCCn1nc(-c2ccc(OCc3ccccc3)cc2)oc1=O`
[A] 18

[Q] Record: `N#CCCN1N=C(c2ccc(OCc3ccccc3)cc2)OCC1=O`
[A] 23

[Q] Record: `Cc1ccc(COc2ccc(-c3nn(CCC#N)c(=O)o3)cc2)cc1`
[A] -3

[Q] Record: `N#CCCn1nc(-c2ccc(OCc3cccc(Cl)c3)cc2)oc1=O`
[A] -7

###

Quick reference: pIC50 of the listed items.
target: Amine oxidase [flavin-containing] B (Rattus norvegicus); test: In vitro inhibitory activity on rat brain MAO-B.
Formally, pIC50 is defined as -log10 of the concentration c, with c in mol/L.

Sample answers from the record:
structure_notation	study_target	observed
N#CCCCn1nc(-c2ccc(OCc3ccccc3)cc2)oc1=O	Amine oxidase [flavin-containing] B (Rattus norvegicus)	6.39
N#CCCN1N=C(c2ccc(OCc3cccc(Cl)c3)cc2)OCC1=O	Amine oxidase [flavin-containing] B (Rattus norvegicus)	7.89

[Q] Which pIC50 is listed for `N#CCCN1N=C(c2ccc(OCc3ccccc3)cc2)OCC1=O` ?
[A] 7.74

[Q] Record: `N#CCCn1nc(-c2ccc(OCc3ccccc3)cc2)sc1=O`
[A] 8.10

[Q] Record: `COc1cccc(COc2ccc(-c3nn(CCC#N)c(=O)o3)cc2)c1`
[A] 7.54

[Q] Record: `N#CCCn1nc(-c2ccc(OCc3ccc(Cl)cc3)cc2)oc1=S`
[A] 6.16

###

biological target: Amine oxidase [flavin-containing] B (Rattus norvegicus, UniProt P19643); assay: In vitro inhibitory activity on rat brain MAO-B.
Quick reference: IC50 of the listed items.

Sample answers from the record:
structure_notation	IC50
N#CCCn1nc(-c2ccc(OCc3ccc([N+](=O)[O-])cc3)cc2)oc1=O	5500 nM
Cc1cccc(COc2ccc(C3=NN(CCC#N)C(=O)CO3)cc2)c1	31 nM
N#CCCn1nc(-c2ccc(OCc3ccccc3)cc2)oc1=S	4.4 nM
N#CCCn1nc(-c2ccc(OCc3cccc(Cl)c3)cc2)oc1=S	160 nM
Cc1cccc(COc2ccc(-c3nn(CCC#N)c(=O)o3)cc2)c1	8 nM

With those in mind, consider the next compound.
[Q] Which IC50 is listed for `N#CCCn1nc(-c2ccc(OCc3ccc([N+](=O)[O-])cc3)cc2)oc1=S` ?
[A] 4300 nM
